# test.target: T1, human VTCN1 protein (Homo sapiens, UniProt Q7Z7D3)
# T1 construct: His
# T1 sequence (Q7Z7D3 25-282): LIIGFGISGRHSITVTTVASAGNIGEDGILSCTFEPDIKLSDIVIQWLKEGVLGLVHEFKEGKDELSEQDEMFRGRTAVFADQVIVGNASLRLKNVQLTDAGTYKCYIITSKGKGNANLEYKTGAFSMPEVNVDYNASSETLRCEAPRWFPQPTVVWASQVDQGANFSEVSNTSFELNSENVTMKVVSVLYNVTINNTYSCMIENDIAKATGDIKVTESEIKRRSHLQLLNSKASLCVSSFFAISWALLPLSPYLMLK
# assay.text: Affinity to recombinant VTCN1-his by OCTET Red (Protein A biosensors)
# Type: binding
# settings: Table 9
readout.type: k(on)
Numbers only.

Look over these answered cases.
hu6D9_66B1: humanized 6D9 antibody; VH SEQ ID NO: 236, VL SEQ ID NO: 224 (antibody, V domains shown) VH: QVQLVESGGGVVQPGRSLRLSCAVSGFTFSSYGVQWVRQAPGKGLEWLGVIWSSGSTDYNAAFLSRLTISKDNSKNTVYFQMNSLRAEDTAVYYCARDVTTIVEGFAHWGQGTLVTVSS VL: DIQMTQSPSSLSASVGDRVTITCKASEKVGTYVSWYQQKPGKAPKLLIYGASNRYTGVPSRFSGSGSGTDFTLTISSLQPEDFATYYCGQTYSYPFTFGQGTKLEIK: 1.20E+05
hu6D9_57A3: humanized 6D9 antibody; VH SEQ ID NO: 220, VL SEQ ID NO: 224 (antibody, V domains shown) VH: QVQLVESGGGVVQPGRSLRLSCAVSGFSLTSYGVQWVRQAPGKGLEWLGVIWSSGSTDYNAAFLSRLTISKDNSKNTVYFQMNSLRAEDTAVYYCARDVTTIVEGFAHWGQGTLVTVSS VL: DIQMTQSPSSLSASVGDRVTITCKASEKVGTYVSWYQQKPGKAPKLLIYGASNRYTGVPSRFSGSGSGTDFTLTISSLQPEDFATYYCGQTYSYPFTFGQGTKLEIK: 8.21E+04

Problem: # lookup: k(on) of hu6D9_57A5: humanized 6D9 antibody; VH SEQ ID NO: 232, VL SEQ ID NO: 224 (antibody, V domains shown) VH: QVQLVESGGGVVQPGRSLRLSCAVSGFSLTSYGVQWVRQAPGKGLEWLAVIWSSGSTDYNAAFLSRLTISKDNSKNTVYFQMNSLRAEDTAVYYCARDVTTIVEGFAHWGQGTLVTVSS VL: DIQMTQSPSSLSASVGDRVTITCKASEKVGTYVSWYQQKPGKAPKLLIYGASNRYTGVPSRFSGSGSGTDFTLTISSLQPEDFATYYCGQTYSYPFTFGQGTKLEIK
Solution: 8.14E+04
